biological target: human Cav2.2 (Homo sapiens); assay: Assessment of calcium channel activity using FLIPR (Ca2+ influx in IMR32 cells); format: cell-based
Consider the following compounds; for each one, report its IC50.
Mention the unit after the number when you answer.

Problem: Can you look up the measured IC50 of CN(C)[C@@H](CC1CC1)C(=O)N[C@H]1CC[C@@H]2CN(c3ccc(OC(F)(F)F)cc3)C[C@@H]21 for me?
Result: 2160 nM

Problem: Can you look up the measured IC50 of O=C(N[C@H]1CC[C@@H]2CN(c3ccc(C(F)(F)F)cn3)C[C@@H]21)[C@@H]1C[C@@H]2CCCC[C@@H]2N1 for me?
Result: 2220 nM

Problem: Can you look up the measured IC50 of CC(C)C(C(=O)N[C@H]1CC[C@H]2CN(Cc3cccc(C(F)(F)F)c3)C[C@H]21)c1ccccc1 (relative stereo) for me?
Result: 360 nM

Problem: Can you look up the measured IC50 of O=C(CC(O)C(F)(F)F)N[C@H]1CC[C@@H]2CN(c3cccc(C(F)(F)F)n3)C[C@@H]21 (stereo partly shown) for me?
Result: 2560 nM

====

Consider the following compounds; for each one, report its pIC50.
target: human Cav2.2 (Homo sapiens, UniProt Q00975); assay: Assessment of calcium channel activity using FLIPR (Ca2+ influx in IMR32 cells); type: cell-based
Sequence (Q00975 whole entry): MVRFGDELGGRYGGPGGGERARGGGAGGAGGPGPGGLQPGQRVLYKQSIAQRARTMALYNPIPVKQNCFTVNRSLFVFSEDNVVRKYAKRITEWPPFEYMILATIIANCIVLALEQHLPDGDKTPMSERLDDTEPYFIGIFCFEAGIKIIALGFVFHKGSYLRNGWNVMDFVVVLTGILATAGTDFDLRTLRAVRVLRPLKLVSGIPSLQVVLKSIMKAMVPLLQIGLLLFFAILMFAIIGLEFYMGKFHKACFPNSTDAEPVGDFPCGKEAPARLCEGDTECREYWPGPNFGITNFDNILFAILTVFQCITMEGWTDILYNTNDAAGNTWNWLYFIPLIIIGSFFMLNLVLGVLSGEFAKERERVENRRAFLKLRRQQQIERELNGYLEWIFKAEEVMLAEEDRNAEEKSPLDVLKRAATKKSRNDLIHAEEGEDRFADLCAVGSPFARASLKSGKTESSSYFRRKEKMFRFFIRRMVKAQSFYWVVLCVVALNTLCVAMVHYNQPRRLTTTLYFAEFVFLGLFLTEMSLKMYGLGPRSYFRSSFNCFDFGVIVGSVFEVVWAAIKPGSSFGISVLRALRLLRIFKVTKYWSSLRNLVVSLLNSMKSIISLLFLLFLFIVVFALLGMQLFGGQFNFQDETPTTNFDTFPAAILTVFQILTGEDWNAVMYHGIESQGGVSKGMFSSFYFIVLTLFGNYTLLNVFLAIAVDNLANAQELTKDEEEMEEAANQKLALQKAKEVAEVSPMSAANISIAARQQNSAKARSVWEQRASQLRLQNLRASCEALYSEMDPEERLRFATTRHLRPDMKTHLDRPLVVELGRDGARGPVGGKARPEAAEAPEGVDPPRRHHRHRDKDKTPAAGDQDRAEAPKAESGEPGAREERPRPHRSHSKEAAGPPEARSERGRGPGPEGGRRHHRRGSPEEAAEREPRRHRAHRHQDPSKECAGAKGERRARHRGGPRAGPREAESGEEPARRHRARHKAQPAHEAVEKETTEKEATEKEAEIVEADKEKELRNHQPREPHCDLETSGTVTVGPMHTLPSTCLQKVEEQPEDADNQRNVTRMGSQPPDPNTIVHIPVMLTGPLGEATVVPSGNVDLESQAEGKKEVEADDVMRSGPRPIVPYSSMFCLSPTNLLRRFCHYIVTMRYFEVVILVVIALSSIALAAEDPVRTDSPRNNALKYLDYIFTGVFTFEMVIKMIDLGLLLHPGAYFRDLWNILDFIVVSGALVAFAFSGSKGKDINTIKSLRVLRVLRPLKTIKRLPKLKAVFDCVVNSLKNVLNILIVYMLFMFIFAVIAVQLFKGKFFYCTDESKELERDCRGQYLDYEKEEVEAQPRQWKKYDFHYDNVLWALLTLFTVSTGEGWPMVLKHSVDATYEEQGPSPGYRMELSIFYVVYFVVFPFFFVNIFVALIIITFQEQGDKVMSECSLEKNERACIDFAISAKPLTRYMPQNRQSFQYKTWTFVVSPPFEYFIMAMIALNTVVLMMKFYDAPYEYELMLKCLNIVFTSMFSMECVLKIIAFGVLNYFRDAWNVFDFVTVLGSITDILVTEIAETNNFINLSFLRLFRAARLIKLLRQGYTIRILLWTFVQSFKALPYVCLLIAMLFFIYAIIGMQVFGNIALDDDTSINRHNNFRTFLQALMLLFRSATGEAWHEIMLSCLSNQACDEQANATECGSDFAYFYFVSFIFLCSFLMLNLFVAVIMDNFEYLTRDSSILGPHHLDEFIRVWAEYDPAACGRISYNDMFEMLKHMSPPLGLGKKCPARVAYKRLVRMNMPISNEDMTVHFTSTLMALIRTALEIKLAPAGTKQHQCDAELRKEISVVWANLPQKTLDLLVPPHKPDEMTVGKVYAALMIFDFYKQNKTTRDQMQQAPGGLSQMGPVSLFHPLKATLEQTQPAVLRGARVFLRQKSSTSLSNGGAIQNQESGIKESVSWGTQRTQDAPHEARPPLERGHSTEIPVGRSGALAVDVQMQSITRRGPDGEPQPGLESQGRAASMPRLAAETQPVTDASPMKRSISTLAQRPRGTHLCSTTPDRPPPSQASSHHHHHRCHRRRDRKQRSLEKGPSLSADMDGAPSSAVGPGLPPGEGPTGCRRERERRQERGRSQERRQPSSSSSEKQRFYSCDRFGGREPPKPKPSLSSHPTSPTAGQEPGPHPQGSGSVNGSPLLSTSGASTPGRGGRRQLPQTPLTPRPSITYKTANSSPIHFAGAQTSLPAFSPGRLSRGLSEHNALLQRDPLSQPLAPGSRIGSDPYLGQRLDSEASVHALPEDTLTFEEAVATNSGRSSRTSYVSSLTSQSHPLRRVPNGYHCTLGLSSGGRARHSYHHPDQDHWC
Sequence (P54289 25-956 partner limits assumed): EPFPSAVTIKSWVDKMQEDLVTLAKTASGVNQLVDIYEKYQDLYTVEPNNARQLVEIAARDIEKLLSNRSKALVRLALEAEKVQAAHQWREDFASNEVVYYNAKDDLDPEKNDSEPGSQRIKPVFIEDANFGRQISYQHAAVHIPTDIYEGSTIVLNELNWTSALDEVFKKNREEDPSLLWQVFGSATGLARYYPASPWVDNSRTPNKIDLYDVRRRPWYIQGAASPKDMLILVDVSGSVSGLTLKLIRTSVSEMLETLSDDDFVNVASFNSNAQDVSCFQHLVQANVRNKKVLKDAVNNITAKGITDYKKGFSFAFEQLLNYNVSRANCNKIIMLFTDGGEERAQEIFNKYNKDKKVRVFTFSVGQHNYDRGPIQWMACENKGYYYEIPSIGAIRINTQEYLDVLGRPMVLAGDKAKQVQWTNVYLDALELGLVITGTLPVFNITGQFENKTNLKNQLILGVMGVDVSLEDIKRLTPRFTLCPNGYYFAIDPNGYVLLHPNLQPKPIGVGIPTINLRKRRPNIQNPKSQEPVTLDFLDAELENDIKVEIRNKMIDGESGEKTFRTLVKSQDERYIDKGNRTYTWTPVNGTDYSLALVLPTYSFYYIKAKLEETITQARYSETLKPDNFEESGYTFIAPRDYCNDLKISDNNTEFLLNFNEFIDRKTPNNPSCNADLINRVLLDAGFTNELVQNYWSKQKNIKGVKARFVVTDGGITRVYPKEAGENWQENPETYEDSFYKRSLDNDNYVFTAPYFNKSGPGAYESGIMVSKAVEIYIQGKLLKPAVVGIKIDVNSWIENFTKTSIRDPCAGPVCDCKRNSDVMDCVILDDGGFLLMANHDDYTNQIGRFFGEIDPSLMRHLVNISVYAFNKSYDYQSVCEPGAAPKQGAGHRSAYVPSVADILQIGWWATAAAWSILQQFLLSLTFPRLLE
Sequence (P54289 957-1103 partner limits assumed): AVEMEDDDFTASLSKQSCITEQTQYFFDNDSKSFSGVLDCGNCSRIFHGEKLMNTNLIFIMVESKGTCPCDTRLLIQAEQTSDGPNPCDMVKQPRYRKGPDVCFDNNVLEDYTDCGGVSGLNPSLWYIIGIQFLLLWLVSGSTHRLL
Sequence (P54284 whole entry partner): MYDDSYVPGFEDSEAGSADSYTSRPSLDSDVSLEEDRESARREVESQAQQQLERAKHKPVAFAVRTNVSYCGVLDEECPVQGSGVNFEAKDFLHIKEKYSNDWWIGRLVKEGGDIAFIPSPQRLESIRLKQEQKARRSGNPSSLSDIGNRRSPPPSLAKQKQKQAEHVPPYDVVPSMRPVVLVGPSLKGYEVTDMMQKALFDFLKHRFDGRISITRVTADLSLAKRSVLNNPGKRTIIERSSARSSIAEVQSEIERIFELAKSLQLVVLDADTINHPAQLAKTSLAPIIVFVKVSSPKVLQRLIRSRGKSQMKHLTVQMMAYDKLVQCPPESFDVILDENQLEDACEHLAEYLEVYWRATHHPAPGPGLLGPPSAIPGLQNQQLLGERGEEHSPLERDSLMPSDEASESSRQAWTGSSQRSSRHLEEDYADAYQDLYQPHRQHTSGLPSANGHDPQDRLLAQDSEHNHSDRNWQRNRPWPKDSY
API: returns pIC50 as number; meaning -log10 of concentration in mol/L.

Problem: Can you look up the measured pIC50 of FC(F)(F)c1cccc(N2C[C@H]3CC[C@H](NCc4ncc[nH]4)[C@H]3C2)n1 for me?
Result: 5.65

Problem: Can you look up the measured pIC50 of CN[C@@H](CC(C)C)C(=O)N[C@H]1CC[C@@H]2CN(c3ccccc3F)C[C@@H]21 for me?
Result: 5.55

Problem: Can you look up the measured pIC50 of FC(F)(F)c1cccc(N2C[C@H]3CC[C@H](NCc4cc5cccnc5s4)[C@H]3C2)n1 for me?
Result: 6.24

Problem: Can you look up the measured pIC50 of O=C(N[C@H]1CC[C@H]2CN(Cc3cccc(C(F)(F)F)c3)C[C@H]21)C1CCCCC1 (relative stereo) for me?
Result: 5.90

Problem: Can you look up the measured pIC50 of O=S(=O)(N[C@@H]1CC[C@@H]2CN(Cc3cccc(C(F)(F)F)c3)C[C@@H]21)c1cccc(C(F)(F)F)c1 for me?
Result: 6.07

Problem: Can you look up the measured pIC50 of CN[C@@H](CC(C)C)C(=O)N[C@H]1CC[C@@H]2CN(c3ccc(F)cc3C(F)(F)F)C[C@@H]21 for me?
Result: 6.44

Problem: Can you look up the measured pIC50 of O=C(N[C@H]1CC[C@@H]2CN(c3ccc(C(F)(F)F)cn3)C[C@@H]21)[C@@H]1C[C@@H](F)CN1 for me?
Result: 4.85

Problem: Can you look up the measured pIC50 of CN[C@@H](CC(C)C)C(=O)N[C@H]1CC[C@@H]2CN(c3cccc(F)c3)C[C@@H]21 for me?
Result: 5.37

Problem: Can you look up the measured pIC50 of COc1ccc2[nH]c(CN[C@H]3CC[C@@H]4CN(c5cccc(C(F)(F)F)n5)C[C@@H]43)c(C)c2c1 for me?
Result: 5.81

Problem: Can you look up the measured pIC50 of CCCC(CCC)C(=O)N[C@H]1CC[C@H]2CN(Cc3cccc(C(F)(F)F)c3)C[C@H]21 (relative stereo) for me?
Result: 6.02

Problem: Can you look up the measured pIC50 of O=C(N[C@H]1CC[C@@H]2CN(c3cc(C(F)(F)F)ccn3)C[C@@H]21)[C@@H]1C[C@@H](F)CN1 for me?
Result: 4.69

Problem: Can you look up the measured pIC50 of O=C(N[C@H]1CC[C@@H]2CN(c3csc(C(F)F)c3)C[C@@H]21)[C@@H]1C[C@@H](F)CN1 for me?
Result: 4.71

====

target: human Cav2.2 (Homo sapiens, UniProt Q00975); test: Assessment of calcium channel activity using FLIPR (Ca2+ influx in IMR32 cells); type: cell-based
Consider the following compounds; for each one, report its IC50.
Report only the number, with the unit nM understood.

Problem: Please tell me: IC50 of O=C(N[C@H]1CC[C@@H]2CN(c3cccc(C(F)(F)F)n3)C[C@@H]21)c1cc(C2CC2)n[nH]1 [Example 583] , system human Cav2.2 (Homo sapiens, UniProt Q00975)?
Result: 1120

Problem: Please tell me: IC50 of FC(F)(F)c1cccc(N2C[C@H]3CC[C@H](NCc4ccc5nsnc5c4)[C@H]3C2)n1 [Example 732] , system human Cav2.2 (Homo sapiens, UniProt Q00975)?
Result: 560

Problem: Please tell me: IC50 of CN[C@@H](CC(C)C)C(=O)N[C@H]1CC[C@@H]2CN(c3cccc(OC(F)(F)F)c3)C[C@@H]21 [Example 625] , system human Cav2.2 (Homo sapiens, UniProt Q00975)?
Result: 1420

====

Consider the following molecules; for each one, report its IC50.
biological target: human Cav2.2 (Homo sapiens); test: Assessment of calcium channel activity using FLIPR (Ca2+ influx in IMR32 cells); type: cell-based

Problem: Can you look up the measured IC50 of O=C(N[C@H]1CC[C@H]2CN(Cc3cccc(F)c3)C[C@H]21)C(C1CCCCC1)C1CCCCC1 for me?
Result: 990 nM

Problem: Can you look up the measured IC50 of CCC[C@H](NC)C(=O)N[C@H]1CC[C@@H]2CN(c3ccc(OC(F)(F)F)cc3)C[C@@H]21 for me?
Result: 10600 nM

Problem: Can you look up the measured IC50 of CN[C@@H](CC(C)C)C(=O)N[C@H]1CC[C@@H]2CN(c3ccccc3C(F)(F)F)C[C@@H]21 for me?
Result: 630 nM

Problem: Can you look up the measured IC50 of O=C(N[C@H]1CC[C@H]2CN(Cc3cccc(C(F)(F)F)c3)C[C@H]21)C(c1ccc(F)cc1)c1ccc(F)cc1 (relative stereo) for me?
Result: 640 nM

Problem: Can you look up the measured IC50 of CN[C@@H](CC(C)(C)C)C(=O)N1C[C@H]2CC[C@H](NC(=O)C(c3ccc(F)cc3)c3ccc(F)cc3)[C@H]2C1 for me?
Result: 1460 nM

Problem: Can you look up the measured IC50 of O=C(N[C@H]1CC[C@H]2CN(Cc3cccc(C(F)(F)F)c3)C[C@H]21)C(C1CCCCC1)C1CCCCC1 (relative stereo) [Example 124] for me?
Result: 1070 nM

Problem: Can you look up the measured IC50 of CC(C)CC(=O)N[C@H]1CC[C@@H]2CN(Cc3ccccc3)C[C@@H]21 for me?
Result: > 30000 nM

====

Consider the following compounds; for each one, report its IC50.
Target: human Cav2.2 (Homo sapiens)
Assay: Assessment of calcium channel activity using FLIPR (Ca2+ influx in IMR32 cells)
Type: cell-based
Description: (i) In Vitro Methods—Assessment of Calcium Channel Activity Using FLIPR: The IMR32 cells were maintained in MEM media containing 10% (v/v) FBS, 1% (v/v) antibiotic/antimitotic, 1% (v/v) sodium pyruvate and 1% (v/v) MEM NEAA. […] To determine the IC50 values, the percent inhibition of the compound at each concentration was determined relative to the activity in the absence of inhibitor, and data was fitted using non-linear regression sigmoidal dose response curve analysis with GraphPad Prism®.

Problem: Can you look up the measured IC50 of CN[C@@H](CC(C)C)C(=O)N[C@H]1CC[C@@H]2CN(c3cncc(C(F)(F)F)c3)C[C@@H]21 for me?
Result: 3.34 µM

Problem: Can you look up the measured IC50 of CCC[C@H](NC)C(=O)N[C@H]1CC[C@@H]2CN(S(=O)(=O)c3cccnc3)C[C@@H]21 for me?
Result: > 30 µM

Problem: Can you look up the measured IC50 of CC(C)(C)CCN[C@H]1CC[C@@H]2CN(c3cccc(C(F)(F)F)n3)C[C@@H]21 for me?
Result: 0.5 µM

Problem: Can you look up the measured IC50 of FC(F)(F)c1cccc(N2C[C@H]3CC[C@H](NCc4nc5ccccc5[nH]4)[C@H]3C2)n1 for me?
Result: 0.71 µM

Problem: Can you look up the measured IC50 of CN[C@@H](CC(C)C)C(=O)N[C@H]1CC[C@@H]2CN(c3cccc(F)c3F)C[C@@H]21 for me?
Result: 1.26 µM

Problem: Can you look up the measured IC50 of O=C(N[C@H]1CC[C@@H]2CN(c3cccc(Cl)c3)C[C@@H]21)[C@@H]1C[C@@H](F)CN1 for me?
Result: 3.57 µM

Problem: Can you look up the measured IC50 of O=S(=O)(N[C@H]1CC[C@@H]2CN(c3cccc(C(F)(F)F)n3)C[C@@H]21)c1ccccc1 for me?
Result: 3.35 µM

Problem: Can you look up the measured IC50 of CN[C@@H](CC(C)C)C(=O)N[C@H]1CC[C@@H]2CN(c3cccc(SC(F)(F)F)c3)C[C@@H]21 for me?
Result: 1.01 µM

Problem: Can you look up the measured IC50 of CN[C@@H](CC(C)C)C(=O)N[C@H]1CC[C@@H]2CN(c3ccc(C)cc3)C[C@@H]21 for me?
Result: 3.55 µM

Problem: Can you look up the measured IC50 of N#Cc1cccc(N2C[C@H]3CC[C@H](NC(=O)[C@@H]4C[C@@H](F)CN4)[C@H]3C2)c1 for me?
Result: 18.9 µM

Problem: Can you look up the measured IC50 of CC(C)C[C@@H](C(=O)N[C@H]1CC[C@@H]2CN(Cc3ccc(C(F)(F)F)cc3)C[C@@H]21)N(C)C(=O)OC(C)(C)C for me?
Result: 1.93 µM

Problem: Can you look up the measured IC50 of CC(C)C(C(=O)N[C@H]1CC[C@@H]2CN(CCCCc3ccccc3)C[C@@H]21)c1ccccc1 (stereo partly drawn) for me?
Result: 0.59 µM

Problem: Can you look up the measured IC50 of CCCC[C@H](NC)C(=O)N[C@H]1CC[C@@H]2CN(Cc3ccccc3)C[C@@H]21 for me?
Result: > 30 µM

Problem: Can you look up the measured IC50 of CNC(C)(C)C(=O)N[C@H]1CC[C@@H]2CN(c3ccc(C(F)(F)F)cc3)C[C@@H]21 for me?
Result: 6.78 µM

Problem: Can you look up the measured IC50 of CCC[C@H](NC(=O)OC(C)C)C(=O)N[C@H]1CC[C@@H]2CN(S(=O)(=O)c3ccc(C(F)(F)F)cc3)C[C@@H]21 for me?
Result: > 16.4 µM
